- experimental target: human MGL from HeLa cells (Homo sapiens (Human))
- assay overview: in vitro MGL activity assay ([glycerol-1,3-3H]-oleoyl glycerol cleavage)
- Type: biochemical
- condition: 300 nM [Glycerol-1,3-3H]-oleoyl glycerol, one hour; read-out: MGL IC50
# maps each entry to its pIC50
Entry type: numeric. Quantity: pIC50, the -log10 of concentration in molar units.

Before answering, review these 2 worked examples.
Requested field: pIC50. Item: CC(C)c1cccc([C@H]2[C@@H]3CN(C(=O)[C@H]4C[C@]5(COC(=O)N5)C4)C[C@@H]32)c1 [Example 84] 8.26

For the molecule O=C1CC[C@]2(C[C@H](C(=O)N3CCC4(c5ccc(OC(F)(F)F)cc5)CC4C3)C2)N1 (mixture of isomers) [Example 55] , what pIC50 is on record? 8.00

Continue with the next molecule.
I am curious: what pIC50 value has been reported for O=C1CC[C@]2(C[C@H](C(=O)N3CC[C@]4(c5ccc(OC(F)(F)F)cc5)C[C@@H]4C3)C2)N1 (stereo in doubt) [Example 122] ? 7.92

----------
- experimental target: human MGL from HeLa cells (Homo sapiens (Human), UniProt Q99685)
- Sequence (Q99685 whole entry): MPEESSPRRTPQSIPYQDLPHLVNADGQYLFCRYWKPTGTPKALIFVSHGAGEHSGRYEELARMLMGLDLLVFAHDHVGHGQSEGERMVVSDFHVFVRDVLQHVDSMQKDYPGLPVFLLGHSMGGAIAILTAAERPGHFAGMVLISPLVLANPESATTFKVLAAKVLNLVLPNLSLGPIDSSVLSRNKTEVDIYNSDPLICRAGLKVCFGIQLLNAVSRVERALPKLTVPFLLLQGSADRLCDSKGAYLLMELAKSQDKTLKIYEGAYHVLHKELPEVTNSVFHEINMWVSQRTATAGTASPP
- assay overview: in vitro MGL activity assay ([glycerol-1,3-3H]-oleoyl glycerol cleavage)
- Type: biochemical
measure: IC50 (nM)
Lab book: enter the figure in nM, no units written.

Need IC50 of O=C1CC[C@]2(C[C@H](C(=O)N3CCC4(c5cccc(OC(F)(F)F)c5)CC4C3)C2)N1 (mixture of isomers) , thanks. 4.8

----------
- experimental target: human MGL from HeLa cells (Homo sapiens (Human), UniProt Q99685)
- assay overview: in vitro MGL activity assay ([glycerol-1,3-3H]-oleoyl glycerol cleavage)
- Assay type: biochemical
- condition: 300 nM [Glycerol-1,3-3H]-oleoyl glycerol, one hour; read-out: MGL IC50
Reported IC50 values for a set of compounds
Response body: numeric value in nM, unit text excluded.

Example compounds with recorded IC50:
// query IC50 value for entry O=C1CC[C@]2(C[C@H](C(=O)N3CC[C@]4(c5cccc(OC(F)(F)F)c5)C[C@@H]4C3)C2)N1 (stereo in doubt) [Example 120] 23

Which IC50 reading was recorded for the compound O=C1CC[C@]2(C[C@H](C(=O)N3CC[C@@]4(c5ccc(OC(F)(F)F)cc5)C[C@H]4C3)C2)N1 (stereo in doubt) [Example 121] ? 42

// returns reported IC50 for input O=C1CC[C@]2(C[C@H](C(=O)N3CCC4(c5ccc(C(F)(F)F)cc5)CC4C3)C2)N1 (mixture of isomers) [Example 59] 18

Can you look up the measured IC50 of O=C1CC[C@]2(C[C@H](C(=O)N3CC[C@@]4(c5cccc(OC(F)(F)F)c5)C[C@H]4C3)C2)N1 (stereo in doubt) [Example 119] for me? 5.2

# next compound below
Consider the compound shown here: Cc1cccc([C@]23CCN(C(=O)[C@H]4C[C@]5(COC(=O)N5)C4)C[C@H]2C3)c1 (relative stereo) [Example 44] What is its recorded IC50? 2.8

Value source: patent US11974987B2
